- target desc: Cannabinoid receptor 2 (Homo sapiens)
- assay details: Agonist activity at LgBiT-fused CB2 receptor (unknown origin) coexpressed with miniGalphai-SmBiT in HEK293T cells assessed as G-protein recruitment by measuring complementation measured after 10 mins by NanoBiT luciferase assay
- Assay type: functional, cell-based
assay metric: EC50 (nM)

- molecule: "O=C1CC(c2nc(-c3ccc(F)c4cn[nH]c34)no2)CCCN1c1ccc(F)cc1 (stereo unspecified)"
  number: 84.7

###

- assay details: Half life in BALB/c mouse at 5 mg/kg, po
- Format: ADME, organism-based
- stated conditions: in vivo

- compound: "O=C1CC(c2nc(-c3ccc(F)c4cn[nH]c34)no2)CCCN1c1ccc(F)cc1 (stereo unspecified)"
  half-life / min: 42

###

- target desc: Cannabinoid receptor 2 (Homo sapiens, UniProt P34972)
- Sequence (P34972 whole entry): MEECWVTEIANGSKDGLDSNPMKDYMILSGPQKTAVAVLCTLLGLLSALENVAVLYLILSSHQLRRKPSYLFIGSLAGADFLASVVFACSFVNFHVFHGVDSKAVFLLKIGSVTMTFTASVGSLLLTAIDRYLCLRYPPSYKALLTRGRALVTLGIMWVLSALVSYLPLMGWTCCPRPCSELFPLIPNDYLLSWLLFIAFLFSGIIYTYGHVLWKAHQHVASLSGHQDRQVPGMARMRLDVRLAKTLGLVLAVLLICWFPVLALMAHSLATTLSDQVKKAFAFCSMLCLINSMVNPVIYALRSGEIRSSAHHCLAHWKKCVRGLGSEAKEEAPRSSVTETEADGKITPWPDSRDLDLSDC
- assay details: Agonist activity at human CB2 receptor expressed in CHO cells assessed as inhibition of forskolin-stimulated intracellular cAMP accumulation measured after 30 mins by Glosensor assay relative to control
- Type: functional, cell-based
- stated conditions: filed as agonist
assay metric: Emax

- compound: "O=C1CC(c2nc(-c3ccc(F)c4cn[nH]c34)no2)CCCN1c1ccc(F)cc1F (stereo not given)"
  target desc: "Cannabinoid receptor 2 (Homo sapiens, UniProt P34972)"
  result: "100%"
- compound: "O=C1CC(c2nc(-c3ccc(F)c4cn[nH]c34)no2)CCCN1c1cc(F)c(F)c(F)c1 (stereo not given)"
  target desc: "Cannabinoid receptor 2 (Homo sapiens, UniProt P34972)"
  result: "102%"
- compound: "O=C1CC(c2nc(-c3ccc(F)c4cn[nH]c34)no2)CCCN1c1ccccc1 (stereo not given)"
  target desc: "Cannabinoid receptor 2 (Homo sapiens, UniProt P34972)"
  result: "88%"
- compound: "Cc1ccc(N2CCCC(c3nc(-c4ccc(F)c5cn[nH]c45)no3)CC2=O)cc1 (stereo not given)"
  target desc: "Cannabinoid receptor 2 (Homo sapiens, UniProt P34972)"
  result: "82%"
- compound: "O=C1CC(c2nc(-c3ccc(F)c4cn[nH]c34)no2)CCCN1c1ccc(OC(F)(F)F)cc1 (stereo not given)"
  target desc: "Cannabinoid receptor 2 (Homo sapiens, UniProt P34972)"
  result: "74%"
- compound: "O=C1CC(c2nc(-c3ccc(F)c4cn[nH]c34)no2)CCCN1c1cccc(F)c1 (stereo not given)"
  target desc: "Cannabinoid receptor 2 (Homo sapiens, UniProt P34972)"
  result: "79%"
- compound: "O=C1C[C@H](c2nc(-c3ccc(F)c4cn[nH]c34)no2)CCCN1c1ccc(F)cc1"
  target desc: "Cannabinoid receptor 2 (Homo sapiens, UniProt P34972)"
  result: "102%"
- compound: "O=C1CC(c2nc(-c3ccc(F)c4cn[nH]c34)no2)CCCN1c1ccccc1F (stereo not given)"
  target desc: "Cannabinoid receptor 2 (Homo sapiens, UniProt P34972)"
  result: "93%"
- compound: "O=C1CC(c2nc(-c3ccccc3)no2)CCCN1c1ccc(F)cc1 (stereo not given)"
  target desc: "Cannabinoid receptor 2 (Homo sapiens, UniProt P34972)"
  result: "78%"
- compound: "O=C1CC(c2nc(-c3ccc(F)cc3)no2)CCCN1c1ccc(F)cc1 (stereo not given)"
  target desc: "Cannabinoid receptor 2 (Homo sapiens, UniProt P34972)"
  result: "91%"
- compound: "COc1cc(F)ccc1-c1noc(C2CCCN(c3ccc(F)cc3)C(=O)C2)n1 (stereo not given)"
  target desc: "Cannabinoid receptor 2 (Homo sapiens, UniProt P34972)"
  result: "91%"
- compound: "COc1ccc(N2CCCC(c3nc(-c4ccc(F)c5cn[nH]c45)no3)CC2=O)cc1 (stereo not given)"
  target desc: "Cannabinoid receptor 2 (Homo sapiens, UniProt P34972)"
  result: "101%"
- compound: "O=C1CC(c2nc(-c3ccc(F)c4cn[nH]c34)no2)CCCN1c1ccc(Cl)cc1 (stereo not given)"
  target desc: "Cannabinoid receptor 2 (Homo sapiens, UniProt P34972)"
  result: "112%"
- compound: "O=C1CC(c2nc(-c3cccc(F)c3)no2)CCCN1c1ccc(F)cc1 (stereo not given)"
  target desc: "Cannabinoid receptor 2 (Homo sapiens, UniProt P34972)"
  result: "97%"
- compound: "O=C1CC(c2nc(-c3ccc(F)c4ccccc34)no2)CCCN1c1ccc(F)cc1 (stereo not given)"
  target desc: "Cannabinoid receptor 2 (Homo sapiens, UniProt P34972)"
  result: "97%"
- compound: "O=C1CC(c2nc(-c3ccc(F)c4cn[nH]c34)no2)CCCN1c1cccc(F)c1F (stereo not given)"
  target desc: "Cannabinoid receptor 2 (Homo sapiens, UniProt P34972)"
  result: "92%"
- compound: "O=C1CC(c2nc(-c3ccc(F)c4cn[nH]c34)no2)CCCN1c1ccc(F)cc1 (stereo not given)"
  target desc: "Cannabinoid receptor 2 (Homo sapiens, UniProt P34972)"
  result: "87%"
- compound: "O=C1CC(c2nc(-c3ccc(F)c4cc[nH]c34)no2)CCCN1c1ccc(F)cc1 (stereo not given)"
  target desc: "Cannabinoid receptor 2 (Homo sapiens, UniProt P34972)"
  result: "123%"
- compound: "O=C1CC(c2nc(-c3ccc(F)c4cn[nH]c34)no2)CCCN1c1ccc(F)c(F)c1 (stereo not given)"
  target desc: "Cannabinoid receptor 2 (Homo sapiens, UniProt P34972)"
  result: "81%"
- compound: "O=C1C[C@@H](c2nc(-c3ccc(F)c4cn[nH]c34)no2)CCCN1c1ccc(F)cc1"
  target desc: "Cannabinoid receptor 2 (Homo sapiens, UniProt P34972)"
  result: "80%"

###

- target desc: Cannabinoid receptor 1 (Homo sapiens)
- Sequence (P21554 whole entry): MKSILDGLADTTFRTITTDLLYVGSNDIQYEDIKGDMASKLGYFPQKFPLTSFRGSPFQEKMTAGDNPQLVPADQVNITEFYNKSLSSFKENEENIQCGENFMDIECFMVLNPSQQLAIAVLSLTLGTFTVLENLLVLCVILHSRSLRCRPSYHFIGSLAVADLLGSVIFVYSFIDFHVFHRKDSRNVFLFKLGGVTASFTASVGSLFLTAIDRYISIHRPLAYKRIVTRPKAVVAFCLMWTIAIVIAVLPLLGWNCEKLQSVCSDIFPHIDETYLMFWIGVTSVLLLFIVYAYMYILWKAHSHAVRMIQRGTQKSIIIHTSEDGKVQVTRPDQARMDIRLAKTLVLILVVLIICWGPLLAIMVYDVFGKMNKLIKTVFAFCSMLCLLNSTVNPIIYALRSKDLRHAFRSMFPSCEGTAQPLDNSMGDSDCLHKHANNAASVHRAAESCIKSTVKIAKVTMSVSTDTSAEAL
- assay details: Agonist activity at human CB1 receptor expressed in CHO cells assessed as inhibition of forskolin-stimulated intracellular cAMP accumulation measured after 30 mins by Glosensor assay
- Assay type: cell-based
Each entry below carries its recorded EC50.
assay metric: EC50

- compound: "O=C1CC(c2nc(-c3ccc(F)cc3F)no2)CCCN1c1ccc(F)cc1 (stereo unspecified)"
  target desc: "Cannabinoid receptor 1 (Homo sapiens)"
  result: "> 10 µM"
- compound: "O=C1C[C@H](c2nc(-c3ccc(F)c4cn[nH]c34)no2)CCCN1c1ccc(F)cc1"
  target desc: "Cannabinoid receptor 1 (Homo sapiens)"
  result: "> 30 µM"
- compound: "Cc1cc(F)ccc1-c1noc(C2CCCN(c3ccc(F)cc3)C(=O)C2)n1 (stereo unspecified)"
  target desc: "Cannabinoid receptor 1 (Homo sapiens)"
  result: "> 10 µM"
- compound: "O=C1CC(c2nc(-c3ccc(F)c4cn[nH]c34)no2)CCCN1c1ccc(OC(F)(F)F)cc1 (stereo unspecified)"
  target desc: "Cannabinoid receptor 1 (Homo sapiens)"
  result: "> 10 µM"
- compound: "O=C1CC(c2nc(-c3ccccc3F)no2)CCCN1c1ccc(F)cc1 (stereo unspecified)"
  target desc: "Cannabinoid receptor 1 (Homo sapiens)"
  result: "> 10 µM"
- compound: "CN1CCCC(c2nc(-c3ccc(F)c4cn[nH]c34)no2)CC1=O (stereo unspecified)"
  target desc: "Cannabinoid receptor 1 (Homo sapiens)"
  result: "> 10 µM"

###

- assay details: Clearance in BALB/c mouse at 1 mg/kg, iv
- Type: ADME, organism-based
- stated conditions: in vivo

- compound: "O=C1CC(c2nc(-c3ccc(F)c4cn[nH]c34)no2)CCCN1c1ccc(F)cc1 (stereo unspecified)"
  clearance (mL/min/kg): 41.2

###

- assay details: Tmax in BALB/c mouse at 5 mg/kg, po
- Assay type: ADME, organism-based
- stated conditions: in vivo
assay metric: Tmax (min)

- molecule: "O=C1CC(c2nc(-c3ccc(F)c4cn[nH]c34)no2)CCCN1c1ccc(F)cc1 (stereo unspecified)"
  number: 25.2

###

- assay details: Intrinsic clearance in human liver at 10 uM measured per kg body weight
- Type: ADME, tissue-based

- compound: "O=C1CC(c2nc(-c3ccc(F)c4cn[nH]c34)no2)CCCN1c1ccc(F)cc1 (stereo unspecified)"
  CLH [mL/min/kg]: 28.8

###

- assay details: Cmax in BALB/c mouse at 1 mg/kg, iv
- Assay type: ADME, organism-based
- Set-up: dose 1 mg/kg, route iv
- stated conditions: in vivo
assay metric: Cmax

- molecule: "O=C1CC(c2nc(-c3ccc(F)c4cn[nH]c34)no2)CCCN1c1ccc(F)cc1 (stereo unspecified)"
  result: "615 ng/mL"

###

- assay details: Bioavailability in BALB/c mouse at 5 mg/kg, ip
- Type: ADME, organism-based
- stated conditions: in vivo
assay metric: bioavailability (%)

- compound: "O=C1CC(c2nc(-c3ccc(F)c4cn[nH]c34)no2)CCCN1c1ccc(F)cc1 (stereo unspecified)"
  assay metric: "bioavailability"
  number: 88.5

###

- assay details: Half life in mouse liver microsomes at 10 uM
- Format: ADME, Microsome

- compound: "O=C1CC(c2nc(-c3ccc(F)c4cn[nH]c34)no2)CCCN1c1ccc(F)cc1 (stereo unspecified)"
  half-life at 10 µM [min]: 13.1
